Task for the reader: assign each of the following variants its reported enrichment ratio.
B1: PhoQ; a variant is named by its letters at X, in order, P23837 (parent)
chain: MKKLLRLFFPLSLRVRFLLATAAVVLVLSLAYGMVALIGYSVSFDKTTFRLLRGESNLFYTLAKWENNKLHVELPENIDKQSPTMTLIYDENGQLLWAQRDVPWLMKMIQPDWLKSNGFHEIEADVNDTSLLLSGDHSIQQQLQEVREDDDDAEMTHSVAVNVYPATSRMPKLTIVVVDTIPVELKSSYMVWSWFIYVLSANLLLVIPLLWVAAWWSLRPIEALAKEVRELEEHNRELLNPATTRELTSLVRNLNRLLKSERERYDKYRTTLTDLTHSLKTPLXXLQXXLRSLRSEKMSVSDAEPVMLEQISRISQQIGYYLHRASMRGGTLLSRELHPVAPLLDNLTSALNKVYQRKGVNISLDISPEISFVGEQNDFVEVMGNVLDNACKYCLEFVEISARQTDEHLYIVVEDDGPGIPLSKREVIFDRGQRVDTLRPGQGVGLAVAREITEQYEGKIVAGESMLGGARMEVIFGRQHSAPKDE

# Variants of: B1
# assay_summary: enrichment ratio after two sorts for PhoP signalling (ratio (wild type AVST 3.29)); higher = more functional
# measurement_conditions: with PhoP (E. coli)
Whole data set: some 140,000 sequences, median “enrichment ratio after two sorts for PhoP signalling” near 0, cut for the highest 2% near 11. The entries come from a sample that favours the highest values as a whole.

Task: Consider the variant LTKW and give its measured enrichment ratio.
Result: ≤ 0.25

Task: Proceed to RIIT
Result: ≤ 0.25

Task: Next variant up: MPFQ
Result: ≤ 0.25

Task: Then what about the variant SEGV ?
Result: 11.7

Task: Likewise for YTGV ?
Result: ≤ 0.25

Task: Please answer likewise for SAGD
Result: ≤ 0.25

Task: Thanks! And SAPM ?
Result: 2.5

Task: Now the variant EYMV
Result: ≤ 0.25

Task: Repeat with FEFH
Result: ≤ 0.25

Task: Also need GGKL , thanks.
Result: ≤ 0.25

Task: What do you get for MRMI ?
Result: ≤ 0.25

Task: Try the variant PQAT
Result: ≤ 0.25

Task: Please give the result for QIRT too.
Result: ≤ 0.25

Task: Now this one: LWFG
Result: ≤ 0.25

Task: Now this one: ADLG
Result: 3.46

Task: Same for AILG
Result: 15.7

Task: Same thing, different variant: AQLG
Result: 18.8

Task: What do you have for PFPY ?
Result: ≤ 0.25

Task: Next entry: THLG
Result: 14.4

Task: Param item: NIAL
Result: 1.57

Task: Also, KCGV please.
Result: ≤ 0.25

Task: Likewise for APLG ?
Result: ≤ 0.25

Task: Same again, this time with MDME
Result: ≤ 0.25

Task: Then what about the variant HQLC ?
Result: ≤ 0.25

Task: Try this variant next: HLTF
Result: ≤ 0.25

Task: Same lookup for ITAL , please.
Result: 0.733

Task: Next up: TQIV
Result: 1.59

Task: Do the same for VDCR please
Result: ≤ 0.25

Task: Try this variant too: TMHV
Result: 0.946

Task: Try this variant too: KKLG
Result: ≤ 0.25

Task: Item: AFLG
Result: 15.7

Task: Lookup YRPI
Result: ≤ 0.25

Task: What would you report for AFFG ?
Result: ≤ 0.25

Task: Please give the result for QEGV too.
Result: ≤ 0.25

Task: Then DTVG ?
Result: ≤ 0.25

Task: Lookup MTFH
Result: 3.3

Task: Follow-up entry: IMSK
Result: ≤ 0.25

Task: How about this variant: TQPM
Result: ≤ 0.25

Task: Query IFMM next
Result: ≤ 0.25

Task: Request: QDTV
Result: ≤ 0.25

Task: Lookup AHLG
Result: 6.95

Task: And the next one, NHLG ?
Result: ≤ 0.25

Task: Try this variant too: GCSH
Result: ≤ 0.25

Task: Same thing, different variant: SNIM
Result: ≤ 0.25

Task: Now give it for NTCA too.
Result: ≤ 0.25

Task: Another variant to check: TQGP
Result: ≤ 0.25
